- target_or_test_system: NMDA receptor (NR1 + NR2 subunits) (Rattus norvegicus, UniProt P35439+Q00960)
- Sequence (Q00960 27-1482, other chains not shown): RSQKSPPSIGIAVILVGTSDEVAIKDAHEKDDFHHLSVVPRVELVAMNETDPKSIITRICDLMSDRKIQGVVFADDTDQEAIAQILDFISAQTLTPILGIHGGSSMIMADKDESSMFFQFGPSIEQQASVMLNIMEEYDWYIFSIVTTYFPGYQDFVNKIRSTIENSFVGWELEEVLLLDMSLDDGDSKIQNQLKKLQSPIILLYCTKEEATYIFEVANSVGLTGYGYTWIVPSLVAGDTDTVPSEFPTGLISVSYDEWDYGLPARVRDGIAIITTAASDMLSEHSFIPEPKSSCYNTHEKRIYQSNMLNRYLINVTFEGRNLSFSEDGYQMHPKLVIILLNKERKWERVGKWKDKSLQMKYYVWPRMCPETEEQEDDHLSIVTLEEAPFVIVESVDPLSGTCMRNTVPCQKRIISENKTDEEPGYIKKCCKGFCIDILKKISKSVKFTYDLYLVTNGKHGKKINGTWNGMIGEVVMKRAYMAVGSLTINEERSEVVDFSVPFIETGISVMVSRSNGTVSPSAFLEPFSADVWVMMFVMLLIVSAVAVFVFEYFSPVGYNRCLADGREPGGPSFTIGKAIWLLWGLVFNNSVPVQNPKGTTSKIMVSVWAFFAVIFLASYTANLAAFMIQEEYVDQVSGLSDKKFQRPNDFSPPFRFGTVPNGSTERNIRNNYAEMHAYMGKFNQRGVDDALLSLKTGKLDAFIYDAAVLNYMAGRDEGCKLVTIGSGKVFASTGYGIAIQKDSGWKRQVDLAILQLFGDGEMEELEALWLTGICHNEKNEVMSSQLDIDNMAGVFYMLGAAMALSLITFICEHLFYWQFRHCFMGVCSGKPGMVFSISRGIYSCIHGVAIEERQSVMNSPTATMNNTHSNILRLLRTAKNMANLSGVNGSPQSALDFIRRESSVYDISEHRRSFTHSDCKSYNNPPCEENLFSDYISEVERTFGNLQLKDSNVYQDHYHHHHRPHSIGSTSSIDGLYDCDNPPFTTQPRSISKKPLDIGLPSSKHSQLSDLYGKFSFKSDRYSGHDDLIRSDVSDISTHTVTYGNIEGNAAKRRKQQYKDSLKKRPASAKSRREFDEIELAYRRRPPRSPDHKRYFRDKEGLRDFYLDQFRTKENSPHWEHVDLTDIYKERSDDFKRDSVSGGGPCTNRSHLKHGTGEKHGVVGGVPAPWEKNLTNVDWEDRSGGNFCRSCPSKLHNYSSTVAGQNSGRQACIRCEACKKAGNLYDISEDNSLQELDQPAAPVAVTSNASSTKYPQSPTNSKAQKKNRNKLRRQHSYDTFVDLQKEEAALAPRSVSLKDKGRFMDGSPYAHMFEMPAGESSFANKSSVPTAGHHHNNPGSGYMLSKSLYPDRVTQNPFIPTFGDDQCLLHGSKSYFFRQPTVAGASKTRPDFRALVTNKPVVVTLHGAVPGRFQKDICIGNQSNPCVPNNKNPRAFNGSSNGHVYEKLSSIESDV
- assay_text: Two electrode voltage clamp recording from Xenopus laevis oocytes (pH dependence of NMDA antagonism)
- Type: cell-based
- condition_details: pH 6.9; Table 17; read-out: IC50 at pH 6.9
value_type: pIC50
Remember the convention: pIC50 equals -log10 of concentration in molar.

Take a look at these entries with their results.
{"columns": ["compound", "target_or_test_system", "value_type", "measured_number"],
 "data": [
  ["CCCCN(C/C=C/c1ccc(Cl)c(Cl)c1)CC(O)COc1ccc(NS(C)(=O)=O)cc1 (stereo not shown)", "NMDA receptor (NR1 + NR2 subunits) (Rattus norvegicus, UniProt P35439+Q00960)", "pIC50", 6.79],
  ["CS(=O)(=O)Nc1ccc(OCC(O)CN2CCN(c3ccc(Cl)cc3)CC2)cc1 (stereo not shown)", "NMDA receptor (NR1 + NR2 subunits) (Rattus norvegicus, UniProt P35439+Q00960)", "pIC50", 7.49]
]}

## Input Give the value of pIC50 reported for the following: CS(=O)(=O)Nc1ccc(OCC(O)CN2CCN(c3ccc(F)c(F)c3)CC2)cc1 (stereo not shown)
## Output 7.51

## Input Give the value of pIC50 reported for the following: CS(=O)(=O)Nc1ccc(OCC(O)CNC/C=C/c2ccc(F)c(F)c2)cc1 (stereo not shown)
## Output 7.42

## Input Give the value of pIC50 reported for the following: CS(=O)(=O)Nc1ccc(OCC(O)CN2CCN(c3ccccn3)CC2)cc1 (stereo not shown)
## Output 5.74

## Input Give the value of pIC50 reported for the following: CS(=O)(=O)Nc1ccc(OCC(O)CN2CCN(c3ccc(O)cc3)CC2)cc1 (stereo not shown)
## Output 5.62
